- Test system: cGAS activity in Reporter THP1 cell line
- TEST_DETAILS: Cellular assay to measure cGAS activity: ISRE-Gaussia luciferase reporter THP1 cells transfected with ISD
- Format: cell-based
- PROTOCOL_CONDITIONS: Homo sapiens, THP-1, Table 4, Gaussia luciferase
METRIC_NAME: IC50

The examples below pair each entry with its known result.
Data request, read-out IC50, for CC(C)OC(=O)[C@@H]1CCCN1c1cc(-n2ccnc2)c2ccc(Cl)c(Cl)c2n1 [I-595]
2000 to 10000 nM

Can you check OC[C@@H]1CCCN1c1cc(-n2ccnc2)c2ccc(Cl)c(Cl)c2n1 [I-139] next?
2000 to 10000 nM

Can you check O=C(O)CCOC[C@@H]1C[C@H](O)CN1c1cc(-n2ccnc2)c2ccc(Cl)c(Cl)c2n1 [I-702] next?
2000 to 10000 nM

Can you check CC(CC(=O)O)OC[C@@H]1CCCN1c1cc(-n2ccnc2)c2ccc(Cl)c(Cl)c2n1 (stereo partly drawn) [I-717] next?
< 2000 nM

Can you check O=C(O)COC[C@@H]1C[C@H](F)CN1c1cc(-n2ccnc2)c2ccc(Cl)c(Cl)c2n1 [I-706] next?
< 2000 nM

New cases:
Data request, read-out IC50, for O=C(O)CCC[C@@H]1CCCN1c1cc(-n2ccnc2)c2ccc(Cl)c(Cl)c2n1 [I-682]
< 2000 nM

Can you check O=C(O)CCOC[C@@H]1C[C@H](F)CN1c1cc(-n2ccnc2)c2ccc(Cl)c(Cl)c2n1 [I-705] next?
< 2000 nM

Can you check O=C(O)c1ccn(C[C@@H]2CCCN2c2cc(-n3ccnc3)c3ccc(Cl)c(Cl)c3n2)c1 [I-732] next?
< 2000 nM

Can you check O=C(O)C1CC(OC[C@@H]2CCCN2c2cc(-n3ccnc3)c3ccc(Cl)c(Cl)c3n2)C1 (stereo partly drawn) [I-723] next?
2000 to 10000 nM

Can you check COC(=O)CCOCC[C@@H]1CCCN1c1cc(-n2ccnc2)c2ccc(Cl)c(Cl)c2n1 [I-673] next?
< 2000 nM

Can you check COC(=O)[C@@H]1[C@@H](F)CCN1c1cc(-n2ccnc2)c2ccc(Cl)c(Cl)c2n1 [I-649] next?
2000 to 10000 nM

Can you check O=C(O)CCOC[C@@H]1CC2(CC2)CN1c1cc(-n2ccnc2)c2ccc(Cl)c(Cl)c2n1 [I-709] next?
< 2000 nM

Can you check O=C(O)c1ccccc1OC[C@@H]1CCCN1c1cc(-n2ccnc2)c2ccc(Cl)c(Cl)c2n1 [I-733] next?
< 2000 nM

Can you check O=C(O)CCOCC[C@@H]1CCCN1c1cc(-n2ccnc2)c2ccc(Cl)c(Cl)c2n1 [I-672] next?
< 2000 nM

Can you check COC(=O)[C@@H]1C[C@@H](F)CN1c1cc(-n2ccnc2)c2ccc(Cl)c(Cl)c2n1 [I-592] next?
2000 to 10000 nM
